Origin of values: patent US7235648B1

Target: STE2 receptor (Saccharomyces cerevisiae)
Construct: endogenous in cells; host or cells: S. cerevisiae MATa CY588 / CY1455
Sequence (D6VTK4 1-431): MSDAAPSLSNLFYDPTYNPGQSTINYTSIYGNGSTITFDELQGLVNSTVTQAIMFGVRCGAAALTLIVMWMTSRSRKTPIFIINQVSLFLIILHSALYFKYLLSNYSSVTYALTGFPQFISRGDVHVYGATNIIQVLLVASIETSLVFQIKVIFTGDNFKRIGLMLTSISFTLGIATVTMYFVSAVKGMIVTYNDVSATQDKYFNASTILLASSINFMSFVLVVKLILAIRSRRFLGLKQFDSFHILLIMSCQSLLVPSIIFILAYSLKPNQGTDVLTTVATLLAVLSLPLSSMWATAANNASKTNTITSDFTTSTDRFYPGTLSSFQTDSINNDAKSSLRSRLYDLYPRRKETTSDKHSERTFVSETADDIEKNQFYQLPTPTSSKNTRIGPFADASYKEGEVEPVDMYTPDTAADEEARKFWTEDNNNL
Test: Autocrine MATa yeast (CY588/CY1455) growth on histidine-deficient medium plus aminotriazole, fus1-HIS3 readout
Format: cell-based
Conditions: CY1455; -His medium with 0.5 mM or 1 mM aminotriazole; starburst phenotype
Ends that are not written are not given here.
Result Type: agonist activity on the STE2 receptor, α-Mid-5 library

Below: 5 substances and their reported agonist activity on the STE2 receptor, α-Mid-5 library.
Substance: WHWLSLSPGQPMY [M1]
Study Target: STE2 receptor (Saccharomyces cerevisiae)
Result: agonists

Substance: WHWLQLSAGQPMY [M4]
Study Target: STE2 receptor (Saccharomyces cerevisiae)
Result: agonists

Substance: WHWLRLSAGQPMY [M6]
Study Target: STE2 receptor (Saccharomyces cerevisiae)
Result: agonists

Substance: WHWLRLQSGQPMY [M5]
Study Target: STE2 receptor (Saccharomyces cerevisiae)
Result: agonists

Substance: WHWLSLDAGQPMY [M2]
Study Target: STE2 receptor (Saccharomyces cerevisiae)
Result: agonists

Requested read-out agonist activity on the STE2 receptor, α-Mid-5 library, target or system STE2 receptor (Saccharomyces cerevisiae), entry WHWLSLYPGQPMY [M8] agonists

Requested read-out agonist activity on the STE2 receptor, α-Mid-5 library, target or system STE2 receptor (Saccharomyces cerevisiae), entry Trp His Tip Leu Thr Leu MetAla Gly Gin Pro Met Tyr (WHWLTLMAGQPMY) [M3] agonists

Requested read-out agonist activity on the STE2 receptor, α-Mid-5 library, target or system STE2 receptor (Saccharomyces cerevisiae), entry WHWLRLQPGQPMY [M9] agonists

Requested read-out agonist activity on the STE2 receptor, α-Mid-5 library, target or system STE2 receptor (Saccharomyces cerevisiae), entry WHWLSLVPGQPMY [M7] agonists
